Test system: UACC-62
assay procedure: Cytotoxicity against human UACC62 cells after 6 days by MTT assay
Type: functional, cell-based
condition parameters: UACC-62, 144 h
quantity measured: IC50

Please review the following examples before continuing.
Exercise: Consider the compound shown here: CC(=O)N[C@@H](CSC(=O)Nc1cccc2ccccc12)C(=O)O What is its recorded IC50?
Key: > 200 µM

Exercise: I have this compound here, COc1ccccc1CNC(=O)SC[C@H](NC(C)=O)C(=O)O , and I need its recorded IC50.
Key: > 200 µM

Exercise: Look up IC50 for this compound: COc1ccccc1NC(=O)SC[C@H](NC(C)=O)C(=O)O
Key: > 200 µM

Exercise: Any idea what its IC50 is? The compound is CC(=O)N[C@@H](CSC(=O)Nc1ccc(Cl)cc1)C(=O)O
Key: 0.024 µM

Exercise: Quick one: IC50 for CC(=O)N[C@@H](CSC(=O)Nc1ccccc1)C(=O)O ?
Key: 125 µM

Exercise: # lookup: IC50 of COc1ccc(NC(=O)SC[C@H](NC(C)=O)C(=O)O)cc1
Key: 75.2 µM

Others:
Exercise: Name the recorded IC50 for COc1ccc(OC)c(NC(=O)SC[C@H](NC(C)=O)C(=O)O)c1 .
Key: > 200 µM

Exercise: Can you look up the measured IC50 of CC(=O)N[C@@H](CSC(=O)Nc1ccc(Br)cc1)C(=O)O for me?
Key: 0.32 µM

Exercise: # query: IC50 of entry CC(=O)N[C@@H](CSC(=O)Nc1cccc(Cl)c1)C(=O)O
Key: > 200 µM

Exercise: IC50 for CC(=O)N[C@@H](CSC(=O)Nc1ccccc1Cl)C(=O)O ?
Key: > 200 µM

Exercise: Need IC50, item CC(=O)N[C@@H](CSC(=O)Nc1ccc([N+](=O)[O-])cc1Cl)C(=O)O
Key: > 200 µM

====

assay procedure: Cytotoxicity against human GC3/C1 cells after 6 days by MTT assay
Assay type: functional, cell-based
condition parameters: GC3/C1, 144 h
pIC50: −log10 of the molar value.
quantity measured: pIC50

In the examples that follow, each entry is paired with its recorded pIC50.
Exercise: Item under review: CC(=O)N[C@@H](CSC(=O)Nc1cc(Cl)cc(Cl)c1)C(=O)O . Reported pIC50?
Key: < 3.70

Exercise: Name the recorded pIC50 for CSc1ccccc1NC(=O)SC[C@H](NC(C)=O)C(=O)O .
Key: < 3.70

Exercise: Could you tell me which pIC50 is on file for CC(=O)N[C@@H](CSC(=O)Nc1ccc(Cl)cc1)C(=O)O ?
Key: 5.09

Exercise: Can you look up the measured pIC50 of COc1ccc(NC(=O)SC[C@H](NC(C)=O)C(=O)O)cc1 for me?
Key: < 3.70

Exercise: Name the reported pIC50 value associated with the molecule CC(=O)N[C@@H](CSC(=O)Nc1ccc(I)cc1)C(=O)O
Key: < 3.70

***
Exercise: Would you mind telling me what pIC50 value was observed for CN(C)/N=N/c1[nH]cnc1C(N)=O [DACARBAZINE] ?
Key: 5.12

====

IC50 values for the molecules below.
assay procedure: Cytotoxicity against human GC3/C1 cells after 6 days by MTT assay
Assay type: functional, cell-based
condition parameters: GC3/C1, 144 h

Exercise: I'd like to know its IC50. The molecule in question is CC(=O)N[C@@H](CSC(=O)Nc1cccc2ccccc12)C(=O)O
Key: > 200 µM

Exercise: Requested read-out: IC50. Entry: CC(=O)N[C@@H](CSC(=O)Nc1ccccc1Cl)C(=O)O
Key: > 200 µM

Exercise: May I ask what IC50 has been recorded for CC(=O)N[C@@H](CSC(=O)Nc1ccc([N+](=O)[O-])cc1Cl)C(=O)O ?
Key: > 200 µM

Exercise: What IC50 value was documented for this molecule, COc1ccc(OC)c(NC(=O)SC[C@H](NC(C)=O)C(=O)O)c1 ?
Key: > 200 µM

Exercise: Which IC50 is reported for this molecule? CC(=O)N[C@@H](CSC(=O)NCc1ccc(Cl)cc1)C(=O)O
Key: > 200 µM

***
Exercise: Reported IC50, molecule CC(=O)N[C@@H](CSC(=O)Nc1ccc(Br)cc1)C(=O)O : ____
Key: 63.5 µM

====

assay procedure: Cytotoxicity against human GC3/C1 cells after 6 days by MTT assay
Format: functional, cell-based
condition parameters: GC3/C1, 144 h
pIC50: −log10 of the molar value.
quantity measured: pIC50

Exercise: Value lookup for pIC50; key = CC(=O)N[C@@H](CSC(=O)Nc1cccc(Cl)c1)C(=O)O
Key: < 3.70

Exercise: Endpoint output: pIC50 of CC(=O)N[C@@H](CSC(=O)Nc1ccccc1F)C(=O)O . Value?
Key: < 3.70

Exercise: Entry under review: CC(=O)N[C@@H](CSC(=O)Nc1ccc(C(F)(F)F)cc1[N+](=O)[O-])C(=O)O . Reported pIC50?
Key: < 3.70

Exercise: Can you look up the measured pIC50 of CC(=O)N[C@@H](CSC(=O)Nc1ccc(F)cc1)C(=O)O for me?
Key: 3.94

---
Exercise: # lookup: pIC50 of COc1ccccc1NC(=O)SC[C@H](NC(C)=O)C(=O)O
Key: < 3.70

Exercise: Item CC(=O)N[C@@H](CSC(=O)Nc1ccccc1)C(=O)O has what recorded pIC50?
Key: 3.75

Exercise: May I ask what pIC50 has been recorded for COc1ccccc1CNC(=O)SC[C@H](NC(C)=O)C(=O)O ?
Key: < 3.70
